Just for reference, the supplement of paper PMC7877785 is where these values come from.

self-splicing fitness (ln) listing for selected sequences.
test_details: self-splicing fitness, log relative to wild type (ln ratio); higher = more splicing; Tetrahymena group I intron in knt gene, E. coli kanamycin selection, DiMSum; sequences stand for … in CUCUCU…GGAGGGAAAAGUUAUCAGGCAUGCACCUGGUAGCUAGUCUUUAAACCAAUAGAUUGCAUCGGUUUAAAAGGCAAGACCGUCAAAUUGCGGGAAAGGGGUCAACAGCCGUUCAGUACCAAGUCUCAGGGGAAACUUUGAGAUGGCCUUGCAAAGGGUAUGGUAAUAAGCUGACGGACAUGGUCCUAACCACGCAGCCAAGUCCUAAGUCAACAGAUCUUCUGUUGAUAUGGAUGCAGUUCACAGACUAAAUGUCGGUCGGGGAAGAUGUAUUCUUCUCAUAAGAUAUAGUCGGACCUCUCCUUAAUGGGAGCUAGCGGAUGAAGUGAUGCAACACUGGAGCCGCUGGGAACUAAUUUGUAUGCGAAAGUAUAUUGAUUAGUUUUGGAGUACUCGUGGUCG;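 further: selection with 25 µg/mL kanamycin versus none on LB agar overnight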
stated_conditions: 37 °C
Reply briefly: the number, and no unit.

Reference set, count: 10
UAAUAGCAAUAUUACGAACG; -0.187
AUGGAGCAAUAUUACGGUGG; -2.17
UAAUAGCAAUAUUACGGUAU; -2.68
GUGGAGCAAUAUUACGUUAU; -0.612
GACCAGCAAUAUUACGAAGG; -2.19
AAGAAGCAAUAUUACGUGGC; -2.99
GGAGAGCAAUAUUACGCUGG; -2.41
GUGCAGCAAUAUUACGAACC; 0.395
CGUUAGCAAUAUUACGUGUC; -2.18
UGAUAGCAAUAUUACGACAU; -1.26

Task item: Report self-splicing fitness (ln) for AGAGAGCAAUAUUACGAGUA please.
Reply: -2.01

Task item: Report self-splicing fitness (ln) for CUGCAGCAAUAUUACGCGUA please.
Reply: -1.53

Task item: Report self-splicing fitness (ln) for GCUGAGCAAUAUUACGUAUC please.
Reply: 0.164

Task item: Report self-splicing fitness (ln) for AGCUAGCAAUAUUACGUGCC please.
Reply: -1.84

Task item: Report self-splicing fitness (ln) for AGUCAGCAAUAUUACGCGAG please.
Reply: -0.523

Task item: Report self-splicing fitness (ln) for UGCUAGCAAUAUUACGAUCA please.
Reply: 0.522

Task item: Report self-splicing fitness (ln) for AUAGAGCAAUAUUACGCCUU please.
Reply: 0.354

Task item: Report self-splicing fitness (ln) for UGCUAGCAAUAUUACGCGCA please.
Reply: -0.803

Task item: Report self-splicing fitness (ln) for UCCAAGCAAUAUUACGUUAC please.
Reply: -3.2

Task item: Report self-splicing fitness (ln) for UCAGAGCAAUAUUACGUAAA please.
Reply: -1.95

====

test_details: self-splicing fitness, log relative to wild type (ln ratio); higher = more splicing; Tetrahymena group I intron in knt gene, E. coli kanamycin selection, DiMSum; sequences stand for … in CUCUCU…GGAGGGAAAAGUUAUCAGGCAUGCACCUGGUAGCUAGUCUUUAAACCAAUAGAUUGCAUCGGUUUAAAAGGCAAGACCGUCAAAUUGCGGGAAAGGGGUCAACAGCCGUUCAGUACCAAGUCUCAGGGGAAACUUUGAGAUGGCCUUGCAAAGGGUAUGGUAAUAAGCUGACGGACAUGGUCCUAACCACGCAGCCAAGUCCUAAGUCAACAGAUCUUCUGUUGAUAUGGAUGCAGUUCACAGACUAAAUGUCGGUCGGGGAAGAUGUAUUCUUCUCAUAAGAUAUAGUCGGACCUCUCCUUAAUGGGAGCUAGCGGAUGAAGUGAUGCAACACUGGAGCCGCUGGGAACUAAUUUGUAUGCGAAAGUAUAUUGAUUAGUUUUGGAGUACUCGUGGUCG
stated_conditions: 30 °C
experimental_endpoint: self-splicing fitness (ln)
Reply briefly: the number, and no unit.

ACGUAGCAAUAUUACGGCGU; -3.88
CGUGAGCAAUAUUACGUCUG; -0.656
GUUCAGCAAUAUUACGAACA; -2.43
UUUGAGCAAUAUUACGCUGG; -2.04
GAAAAGCAAUAUUACGUAAG; -2.23

Task item: Report self-splicing fitness (ln) for GCUGAGCAAUAUUACGUUUU please.
Reply: -4.08

Task item: Report self-splicing fitness (ln) for GCGGAGCAAUAUUACGACUC please.
Reply: -2.06

====

test_details: self-splicing fitness, log relative to wild type (ln ratio); higher = more splicing; Tetrahymena group I intron in knt gene, E. coli kanamycin selection, DiMSum; sequences stand for … in CUCUCU…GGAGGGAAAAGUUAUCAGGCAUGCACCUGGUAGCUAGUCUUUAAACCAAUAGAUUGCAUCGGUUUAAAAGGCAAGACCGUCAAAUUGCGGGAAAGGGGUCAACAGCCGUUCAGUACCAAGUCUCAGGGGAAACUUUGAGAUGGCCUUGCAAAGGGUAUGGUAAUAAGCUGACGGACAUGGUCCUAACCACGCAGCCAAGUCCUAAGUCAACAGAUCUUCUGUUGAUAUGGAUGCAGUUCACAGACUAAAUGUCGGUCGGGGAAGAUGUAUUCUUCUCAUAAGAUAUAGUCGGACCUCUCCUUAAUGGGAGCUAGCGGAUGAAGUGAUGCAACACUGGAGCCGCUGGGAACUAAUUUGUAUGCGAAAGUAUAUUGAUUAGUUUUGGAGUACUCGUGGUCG
stated_conditions: 37 °C
self-splicing fitness (ln) listing for selected sequences.
Reply briefly: the number, and no unit.

Reference set, count: 10
CGCUAGCAAUAUUACGAAAG; -0.395
GACGAGCAAUAUUACGGUCG; -0.868
GGUAAGCAAUAUUACGUAAA; -1.13
GUCUAGCAAUAUUACGUUGU; -0.582
AGGGAGCAAUAUUACGGAGC; -1.95
GUAAAGCAAUAUUACGAUCG; 0.373
AGAUAGCAAUAUUACGACGA; -0.749
AGAAAGCAAUAUUACGAACC; -0.276
CGGGAGCAAUAUUACGGGGA; -1.83
AGCCAGCAAUAUUACGGGCC; -3.49

Task item: Report self-splicing fitness (ln) for CGUGAGCAAUAUUACGUAAU please.
Reply: -2.19

Task item: Report self-splicing fitness (ln) for ACCUAGCAAUAUUACGCGCA please.
Reply: -0.709

Task item: Report self-splicing fitness (ln) for CAACAGCAAUAUUACGGGUC please.
Reply: -2.66

Task item: Report self-splicing fitness (ln) for UCAUAGCAAUAUUACGCCUG please.
Reply: -0.133

Task item: Report self-splicing fitness (ln) for UGUCAGCAAUAUUACGACCA please.
Reply: 0.138

Task item: Report self-splicing fitness (ln) for CCUUAGCAAUAUUACGUUCG please.
Reply: -0.857

Task item: Report self-splicing fitness (ln) for CGUAAGCAAUAUUACGCAAG please.
Reply: -1.01

====

test_details: self-splicing fitness, log relative to wild type (ln ratio); higher = more splicing; Tetrahymena group I intron in knt gene, E. coli kanamycin selection, DiMSum; sequences stand for … in CUCUCU…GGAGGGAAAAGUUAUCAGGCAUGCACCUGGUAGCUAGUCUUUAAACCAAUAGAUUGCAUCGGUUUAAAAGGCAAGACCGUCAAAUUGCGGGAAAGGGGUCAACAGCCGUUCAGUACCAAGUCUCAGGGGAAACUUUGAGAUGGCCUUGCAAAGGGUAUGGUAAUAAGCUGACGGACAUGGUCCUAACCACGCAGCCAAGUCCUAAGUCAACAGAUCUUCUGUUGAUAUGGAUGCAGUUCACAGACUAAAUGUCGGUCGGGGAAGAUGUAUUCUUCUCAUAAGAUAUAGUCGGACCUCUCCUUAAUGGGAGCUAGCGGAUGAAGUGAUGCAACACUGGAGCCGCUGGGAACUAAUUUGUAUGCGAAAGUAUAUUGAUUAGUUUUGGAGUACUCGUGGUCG
stated_conditions: 30 °C
Mark Y for reported self-splicing fitness (ln) of -2 or greater; mark N for anything smaller.

Solved entries:
UGACAGCAAUAUUACGACAU; Y
GAUUAGCAAUAUUACGGUAC; N

Task item: Given CGAAAGCAAUAUUACGACGC , state whether its self-splicing fitness (ln) is at least -2.
Reply: Y

Task item: Given AGGUAGCAAUAUUACGGUCC , state whether its self-splicing fitness (ln) is at least -2.
Reply: Y

Task item: Given AGCGAGCAAUAUUACGGAGG , state whether its self-splicing fitness (ln) is at least -2.
Reply: N

Task item: Given GGAAAGCAAUAUUACGUGCC , state whether its self-splicing fitness (ln) is at least -2.
Reply: Y

Task item: Given CUUAAGCAAUAUUACGUAAU , state whether its self-splicing fitness (ln) is at least -2.
Reply: N

Task item: Given CUGAAGCAAUAUUACGGUAU , state whether its self-splicing fitness (ln) is at least -2.
Reply: N

Task item: Given UCUCAGCAAUAUUACGAGUU , state whether its self-splicing fitness (ln) is at least -2.
Reply: N

Task item: Given CGGAAGCAAUAUUACGAAUC , state whether its self-splicing fitness (ln) is at least -2.
Reply: N

Task item: Given GCGCAGCAAUAUUACGACAA , state whether its self-splicing fitness (ln) is at least -2.
Reply: Y

Task item: Given UUUCAGCAAUAUUACGCGGG , state whether its self-splicing fitness (ln) is at least -2.
Reply: N

Task item: Given GCUGAGCAAUAUUACGCUAG , state whether its self-splicing fitness (ln) is at least -2.
Reply: N
